Every entry's value here was drawn from patent US12371817.

Property: Kd; scope: individual binders
Target: T1, ENL (UniProt Q03111 1-148, limits assumed)
T1 construct: also called ENL protein
T1 sequence (looked up): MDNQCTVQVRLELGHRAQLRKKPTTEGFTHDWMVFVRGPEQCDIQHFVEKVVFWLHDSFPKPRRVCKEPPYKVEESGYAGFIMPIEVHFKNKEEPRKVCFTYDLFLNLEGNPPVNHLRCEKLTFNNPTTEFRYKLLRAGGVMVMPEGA
Assay: fluorescence polarization, 5-FAM-conjugated peptide binding to ENL
Ends that are not written are not given here. * marks the point of attachment. Crotonyl(E) = C/C=C/C(=O)*
// return numeric value only (unit: nM, not printed)

binder: SK(Crotonyl(E))DIWCF (also: 5-FAM conjugated, site not given here) [5-FAM-conjugated 7CrKEnl2]
Kd / nM: 90

Input line: # lookup: Kd of DIWCFK(Crotonyl(E))G (also: 5-FAM conjugated, site not given here) [5-FAM-conjugated 7CrKEnl1]
Output line: 94
